Values compiled from BindingDB's records for doi:10.1016/0014-2999(86)90335-3.

# system-under-test: Alpha-1A adrenergic receptor (Rattus norvegicus, UniProt P43140)
# Sequence (P43140 whole entry): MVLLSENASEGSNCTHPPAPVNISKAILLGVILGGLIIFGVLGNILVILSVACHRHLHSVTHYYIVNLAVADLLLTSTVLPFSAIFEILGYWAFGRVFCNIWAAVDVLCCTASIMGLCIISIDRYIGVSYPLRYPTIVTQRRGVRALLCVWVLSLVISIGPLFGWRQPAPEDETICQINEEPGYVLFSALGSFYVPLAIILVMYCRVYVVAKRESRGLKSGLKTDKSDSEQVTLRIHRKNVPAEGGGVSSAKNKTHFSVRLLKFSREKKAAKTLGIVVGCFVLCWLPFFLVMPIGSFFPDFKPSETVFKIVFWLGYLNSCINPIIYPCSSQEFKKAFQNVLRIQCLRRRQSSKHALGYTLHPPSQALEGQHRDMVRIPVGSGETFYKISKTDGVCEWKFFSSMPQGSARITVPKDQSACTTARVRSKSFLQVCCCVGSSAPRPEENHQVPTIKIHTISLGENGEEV
Would you kindly list log10 of Ki for each of these molecules?
Heads up, the numbers here are log10 of Ki in nM units.

Would you mind telling me what log10 of Ki value was observed for CS(=O)(=O)c1ccc2c(c1)N(CCCN1CCC(C(N)=O)CC1)c1ccccc1S2 ?
0.40

Return reported log10 of Ki; argument: CN1C[C@H](C(=O)N[C@]2(C)O[C@@]3(O)[C@@H]4CCCN4C(=O)[C@H](Cc4ccccc4)N3C2=O)C=C2c3cccc4[nH]cc(c34)C[C@H]21
1.40

I am curious: what log10 of Ki value has been reported for c1ccc2c(c1)OCC(C1=NCCN1)O2 (stereo unspecified) ?
3.00

# lookup: log10 of Ki of CN1CCN(CC/C=C2/c3ccccc3Sc3ccc(S(=O)(=O)N(C)C)cc32)CC1
1.40

Please give the measured log10 of Ki for this molecule: N#Cc1ccc2c(c1)N(CCCN1CCC(O)CC1)c1ccccc1S2
0.61

Query (molecule): c1ccc(CC2=NCCN2)cc1 ; field requested: log10 of Ki
3.51
